Attribution: paper PMC9133015

# experiment: Pharmacokinetic profiles
# Type: in vivo
# particulars: SD, rat, serum, iv, 1 mg/kg, SD rats, IV 1 mg/kg, 2 h; read-out: Con. Mean
assay-endpoint: concentration at 2 h (ng/mL)

INSERT INTO results (smiles, assay_endpoint, observed_value) VALUES
  ('CCN1CCN(C(=O)c2ccc(Nc3ncc(F)c(-c4ccc5nc(N(C)C)sc5c4)n3)nc2)CC1', 'concentration at 2 h', 194);
